Reference source for all entries: PubChem BioAssay (EPA / NIEHS)

# Read-out: Collagen I, COL1A1 (gene 1277)
# experimentalProtocol: BSK_MyoF_CollagenI: BioMAP Diversity Plus: MyoF Assay for Collagen I Biomarker Activity (AID 2284238)
# measurementContext: primary human lung fibroblasts
The source made the active and inactive calls. How the source made its calls: active means hit-call score of the fitted dose curve at least 0.9, where 1 is the maximum; inactive means score below 0.9.
Choose one outcome from this list and give only that: active, inactive

Query block: What was the test verdict on Cc1cccc2c1ccc1ccccc12 ?
Result block: inactive

Query block: Check the results log: what was the call for Oc1cc2ccccc2cc1O ?
Result block: inactive

Query block: Each compound tested received a call. Report the one for CC1=NN(c2ccccc2)C(=O)C1 .
Result block: inactive

Query block: Could you kindly confirm the outcome this assay logged for O=C(O)CCC(F)(F)C(F)(F)C(F)(F)C(F)(F)C(F)(F)F ?
Result block: inactive

Query block: For this compound, state the assay outcome: O=C(NCc1ncc(C(F)(F)F)cc1Cl)c1c(Cl)cccc1Cl
Result block: inactive

Query block: Query: recorded result category for O=C(O)CCC(F)(F)C(F)(F)C(F)(F)C(F)(F)C(F)(F)C(F)(F)F in this test
Result block: inactive

Query block: What was the test verdict on C=COC(=O)C(C)(C)CCCCCC ?
Result block: active

====

# experimentalProtocol: APR_HepG2_P-H2AX_72hr: Apredica 72-hour HepG2 Assay for H2AX Phosphorylation (AID 2282916);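 further: phospho-histone H2A.x immunostain intensity per cell marking DNA damage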
# measurementContext: imaging, actives raise or lower the signal
Activity calls are given as the source filed them. The calls were made as follows: active = hit-call score of the fitted dose curve at least 0.9, where 1 is the maximum; inactive = score below 0.9.
property: AC50

Recorded results for 7 molecules are shown here.
>>> experimentalresult("OCC(CO)(CBr)CBr")
"inactive"
>>> experimentalresult("CCCCC(CC)C(=O)O (stereo not drawn)")
"inactive"
>>> experimentalresult("CCCCc1oc2ccccc2c1C(=O)c1cc(I)c(OCCN(CC)CC)c(I)c1")
"75.5 µM (active)"
>>> experimentalresult("N=C(N)c1ccc(OCCCCCOc2ccc(C(=N)N)cc2)cc1")
"25.1 µM (active)"
>>> experimentalresult("CS(=O)(=O)c1ccc([C@@H](CC2CCCC2)C(=O)Nc2cnccn2)cc1Cl")
"inactive"
>>> experimentalresult("CN(C)CCOC(c1ccccc1)c1ccccc1")
"114 µM (active)"
>>> experimentalresult("Cc1[nH]nc2c1N=C(c1ccccc1Cl)c1cc([N+](=O)[O-])ccc1N2")
"19.8 µM (active)"

# context switch: different molecule, same AC50
Looking up O=C1NS(=O)(=O)c2ccccc21 , I found its AC50 recorded as inactive

====

# experimentalProtocol: BSK_3C_uPAR: BioMAP Diversity Plus: 3C Assay for Urokinase-type plasminogen activator receptor (uPAR) Biomarker Activity (AID 2282998)
# measurementContext: BioMAP 3C HUVEC, uPAR biomarker ELISA; actives raise or lower the signal
# Method: BSK_3C is a cell-based, multiplexed-readout assay that uses umbilical vein endothelium, a human vascular primary cell, with measurements taken at 24 hours after chemical dosing in a 96-well plate.BSK_3CAR is an assay component measured in the BSK_3C assay. It measures uPAR antibody related to regulation of gene expression using ELISA technology.Data from the assay component BSK_3CAR was analyzed into 1 assay endpoint. […]
The source made the active and inactive calls. How the source made its calls: active means hit-call score of the fitted dose curve at least 0.9, where 1 is the maximum; inactive means score below 0.9.
property: AC50

Some solved cases for reference:
>>> experimentalresult("CN(C)c1ccc(C(=C2C=CC(=[N+](C)C)C=C2)c2ccccc2)cc1")
"0.0141 µM (active)"
>>> experimentalresult("CS(=O)(=O)c1ccc([C@@H](CC2CCCC2)C(=O)Nc2cnccn2)cc1Cl")
"inactive"
>>> experimentalresult("CCCCC(CC)C(=O)OCCOCCOCCOCCOC(=O)C(CC)CCCC (configuration not stated)")
"inactive"
>>> experimentalresult("CN(C)CCOC(c1ccccc1)c1ccccc1")
"inactive"

Given item O=C(CCCN1CCC(O)(c2ccc(Cl)cc2)CC1)c1ccc(F)cc1 , the value recorded as its AC50 is 20 µM (active)

Memo: CCOC(=O)CN[C@@H](C(=O)N1CC[C@H]1C(=O)NCc1ccc(/C(N)=N/O)cc1)C1CCCCC1 , reported AC50: inactive

AC50 for C=CC(=O)OCCC(F)(F)C(F)(F)C(F)(F)C(F)(F)C(F)(F)C(F)(F)C(F)(F)C(F)(F)F is inactive

====

# Read-out: Macrophage colony-stimulating factor (MCSF), CSF1 (gene 1435)
# experimentalProtocol: BSK_hDFCGF_MCSF: BioMAP Diversity Plus: hDFCGF Assay for Macrophage colony-stimulating factor (MCSF) Biomarker Activity (AID 2283060)
# measurementContext: primary human foreskin fibroblasts; actives raise or lower the signal
Active and inactive are the calls of the source. The calls were made as follows: active = hit-call score of the fitted dose curve at least 0.9, where 1 is the maximum; inactive = score below 0.9.
Outcomes you can answer with include only these: yes (1) = active, no (0) = inactive

Query block: Status in this test for COCN(COC)c1nc(N(COC)COC)nc(N(COC)COC)n1 ?
Result block: no (0)

Query block: Just curious, what result did CCCCC(CC)C(=O)O (stereo unspecified) get here?
Result block: no (0)

Query block: Please state the recorded outcome for this compound: C=CC(C)(CCC=C(C)C)OC(C)=O (stereo unspecified)
Result block: no (0)

Query block: # fetch the recorded call for NC(=NCCCCCCN=C(N)/N=C(\N)Nc1ccc(Cl)cc1)/N=C(\N)Nc1ccc(Cl)cc1 here
Result block: yes (1)

Query block: Check the results log: what was the call for O=P(O)(O)CCC(F)(F)C(F)(F)C(F)(F)C(F)(F)C(F)(F)C(F)(F)C(F)(F)C(F)(F)F ?
Result block: no (0)

Query block: What outcome does the record of this test show for Oc1ccc(Cc2ccccc2O)cc1 ?
Result block: no (0)

Query block: Which outcome did this test record for the compound Oc1cc2ccccc2cc1O ?
Result block: no (0)

Query block: Outcome? O=P(O)(O)CCC(F)(F)C(F)(F)C(F)(F)C(F)(F)C(F)(F)C(F)(F)F
Result block: no (0)

Query block: Dear colleague, could you share the recorded outcome for Cc1cccc2c1ccc1ccccc12 when you have a moment?
Result block: no (0)

Query block: # fetch the recorded call for O=C(CCCN1CCC(O)(c2ccc(Cl)cc2)CC1)c1ccc(F)cc1 here
Result block: no (0)

Query block: Just curious, what result did C=CC(=O)OCCC(F)(F)C(F)(F)C(F)(F)C(F)(F)C(F)(F)C(F)(F)C(F)(F)C(F)(F)F get here?
Result block: no (0)

====

# experimentalProtocol: CEETOX_H295R_11DCORT: CeeTox H295R High-throughput Steroidogenesis Assay for 11-Deoxycortisol (11DCORT) (AID 2283432)
# measurementContext: actives raise or lower the signal
# Procedure: CEETOX_H295R is a cell-based, multiplexed-readout assay that uses H295R, a human adrenal gland cell line, with measurements taken at 48 hours after chemical dosing in a 96-well plate.CEETOX_H295R_11DCORT is one of 23 assay component(s) measured or calculated from the CEETOX_H295R assay. […] This assay endpoint, CEETOX_H295R_11DCORT, was analyzed with bidirectional fitting relative to DMSO as the negative control and baseline of activity. […]
The source made the active and inactive calls. How the source made its calls: active means hit-call score of the fitted dose curve at least 0.9, where 1 is the maximum; inactive means score below 0.9.
Valid outcomes are listed here; reply with one: Y (active), N (inactive)

Query block: Per the assay record, what outcome was assigned to CCCCCC(C)OC(=O)COc1ccc(Cl)c2cccnc12 (stereo unspecified) ?
Result block: Y

Query block: For this compound, state the assay outcome: COc1cc([N+](=O)[O-])ccc1N
Result block: N

Query block: Please indicate how the test categorized COc1cccc(O)c1 .
Result block: N

Query block: Assay outcome for O=C(NCc1ncc(C(F)(F)F)cc1Cl)c1c(Cl)cccc1Cl : what was it?
Result block: N

Query block: Which outcome did this test record for the compound Clc1ccc(Nc2nnc(Cc3ccncc3)c3ccccc23)cc1 ?
Result block: N

Query block: Could you check what this test reported for CC(C)(c1ccc(Oc2ccc(N)cc2)cc1)c1ccc(Oc2ccc(N)cc2)cc1 ?
Result block: Y

====

# Read-out: Urokinase-type plasminogen activator receptor (uPAR), PLAUR (gene 5329)
# experimentalProtocol: BSK_BE3C_uPAR: BioMAP Diversity Plus: BE3C Assay for Urokinase-type plasminogen activator receptor (uPAR) Biomarker Activity (AID 2283039);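 on outcome: uPAR protein level measured by ELISA on the cells; cells exposed to compound for one day before measurement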
# measurementContext: primary human bronchial epithelial cells; actives raise or lower the signal
Calls of active or inactive are those of the source. How the source made its calls: active means hit-call score of the fitted dose curve at least 0.9, where 1 is the maximum; inactive means score below 0.9.
Reply using exactly one outcome from YES = active, NO = inactive

Query block: Outcome? O=C(c1ccccc1)c1ccccc1
Result block: NO

Query block: Just curious, what result did O=C1NS(=O)(=O)c2ccccc21 get here?
Result block: NO

Query block: Could you kindly confirm the outcome this assay logged for NC(=NCCCCCCN=C(N)/N=C(\N)Nc1ccc(Cl)cc1)/N=C(\N)Nc1ccc(Cl)cc1 ?
Result block: YES

Query block: What did the test return for COCN(COC)c1nc(N(COC)COC)nc(N(COC)COC)n1 ?
Result block: NO

Query block: Answer briefly: the call reported for Cc1ccc(C(=O)c2ccccc2)cc1 in this assay.
Result block: NO

Query block: Dear all, I need the recorded test outcome for O=C1c2ccc(O)c(O)c2C(=O)c2c(O)ccc(O)c21 , thank you.
Result block: NO

Query block: Recorded test outcome, item Oc1ccc(Cc2ccccc2O)cc1
Result block: NO

Query block: What was the test verdict on O=C(O)CCC(F)(F)C(F)(F)C(F)(F)C(F)(F)C(F)(F)F ?
Result block: NO

Query block: Entry CCCCCCCCCCCCCCC : call = ?
Result block: NO

Query block: Assay outcome for CCCCc1oc2ccccc2c1C(=O)c1cc(I)c(OCCN(CC)CC)c(I)c1 : what was it?
Result block: YES

Query block: Tell me the assay call for CCCCC(CC)C(=O)OCCOCCOCCOCCOC(=O)C(CC)CCCC (configuration not stated) please.
Result block: NO

Query block: Could you check what this test reported for O=C(O)CCC(F)(F)C(F)(F)C(F)(F)C(F)(F)C(F)(F)C(F)(F)F ?
Result block: NO
